Molecular target: T1, Human T cell receptor on human primary T cells (human, UniProt P01848 1-140; P01850 1-176)
T1 TCR alpha (looked up): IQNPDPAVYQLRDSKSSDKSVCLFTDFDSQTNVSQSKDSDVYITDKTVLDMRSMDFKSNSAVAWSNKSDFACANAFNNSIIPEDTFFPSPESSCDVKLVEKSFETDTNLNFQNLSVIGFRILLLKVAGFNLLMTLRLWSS
T1 TCR beta (looked up): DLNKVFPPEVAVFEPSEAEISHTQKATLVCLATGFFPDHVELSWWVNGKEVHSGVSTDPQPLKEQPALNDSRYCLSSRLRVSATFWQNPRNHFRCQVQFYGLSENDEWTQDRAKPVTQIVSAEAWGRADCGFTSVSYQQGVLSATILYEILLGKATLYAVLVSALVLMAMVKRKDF
Test: cell-based or functional assay
recorded.metric: EC50 (M), KG-1a, Human T cell mediated killing
Field: numeric (M). Do not append units.

Looking up T017000131 (bispecific antibody, also called A0110056A10(E1D)-35GS-T0170056G05-A) DVQLVESGGGLVQAGGSLRLSCAASGITSKINDMGWYRQTPGNYREWVASITATGTTNYRDSVKGRFTISRDNAKSTVYLQMNSLKPEDTTVYYCNTFPPISNFWGQGTLVTVSSGGGGSGGGGSGGGGSGGGGSGGGGSGGGGSGGGGSEVQLVESGGGLVQPGGSLRLSCVASGDVHKINFLGWYRQAPGKEREKVAHISIGDQTDYADSAKGRFTISRDESKNMVYLQMNSLKPEDTAVYFCRAFSRIYPYDYWGQGTLVTVSSA , I see its EC50 (M), KG-1a, Human T cell mediated killing listed as 2.4e-09
